The values you see were collected from paper PMC9264368.

target.system: Notum (Homo sapiens, UniProt Q6P988, C330S)
Sequence (Q6P988 81-451 C330S): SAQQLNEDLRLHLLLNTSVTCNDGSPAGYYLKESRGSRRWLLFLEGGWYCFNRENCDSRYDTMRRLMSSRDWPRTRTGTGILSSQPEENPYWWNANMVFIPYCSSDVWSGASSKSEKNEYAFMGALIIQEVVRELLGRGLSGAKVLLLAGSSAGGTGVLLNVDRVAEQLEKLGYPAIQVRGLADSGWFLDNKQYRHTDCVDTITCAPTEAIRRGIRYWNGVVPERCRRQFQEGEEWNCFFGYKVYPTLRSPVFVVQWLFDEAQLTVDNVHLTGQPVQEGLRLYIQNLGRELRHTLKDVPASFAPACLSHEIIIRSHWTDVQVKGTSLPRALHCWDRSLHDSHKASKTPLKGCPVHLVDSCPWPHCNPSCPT
condition.context: supplementary CSV
experimental.readout: LE

molecule	test.value
Cl.Oc1c(CN2CCOCC2)ccc2ccccc12 [compound 37]	0.33
Nc1ccccc1OCc1ccccc1 [compound 13, 2-(Benzyloxy)aniline]	0.33
CC(=O)Nc1ccc2nsnc2c1 [compound 58]	0.38
C[C@H]1CCCCN1C(=O)N1CCOCC1 [compound 19]	0.29
CCc1ccc(OCC(=O)N2CCCCC2)cc1 [compound 31]	0.3
Cc1nc2ccccn2c1C(=O)NCC(C)C [compound 10]	0.26
